assay-info: qHTS assay to identify small molecule antagonists of the peroxisome proliferator-activated receptor gamma (PPARg) signaling pathway - cell viability counter screen (AID 743194); further: nearly all actives have a fitted effect of over 55% in size
measurement-conditions: PPARg-bla HEK293H viability, CellTiter-Glo luminescence, 17 h, co-treated with 50 nM rosiglitazone; series mostly up to 62.6 µM
Results filed as inconclusive are left out. Active and inactive are the calls of the source. The call rests on the fitted dose curve; in most records, active means well fitted cell-killing curve with a large enough effect in the repeat runs; inconclusive means weak or mixed curves, or effect the other way; inactive means no such curve, though single readings can be large or run the other way.
Field 'call' accepts true (1) for active, false (0) for inactive

CC(=O)NCCO: false (0)
COC(OC)OC: false (0)
CCCCCCCCCCCCCOC(=O)CCSCCC(=O)OCCCCCCCCCCCCC: false (0)
CC(C)C1CCC(C(=O)N[C@H](Cc2ccccc2)C(=O)O)CC1 (stereo partly drawn): false (0)
O=C(O)CO: false (0)

Asked: Record request — test call for CCOC(=O)c1ccc(NC(=O)CN2CCCCC2)cc1
Given back: false (0)

Asked: What classification did O[C@@H](CNC[C@H](O)[C@H]1CCc2cc(F)ccc2O1)[C@@H]1CCc2cc(F)ccc2O1 end up with in this test?
Given back: true (1)

Asked: Name the outcome recorded for c1ccc(CCCc2ccncc2)cc1 in the assay.
Given back: false (0)

Asked: Each molecule tested received a call. Report the one for CC(=O)OCC1=C(C(=O)O)N2C(=O)[C@@H](NC(=O)CSc3ccncc3)[C@H]2SC1 .
Given back: false (0)

Asked: Could you check what this test reported for O=CNNC=O ?
Given back: false (0)

Asked: Any idea what this test logged for O=C(O)CCS ?
Given back: false (0)

Asked: Entry CC(=O)C(C)=O : call = ?
Given back: false (0)

Asked: Hi, do you know how CC(CCc1ccc(O)cc1)NCCc1ccc(O)c(O)c1 (stereo not drawn) came out in this test?
Given back: false (0)

Asked: Each molecule tested received a call. Report the one for CCC(=O)OCc1ccc(OC)cc1 .
Given back: false (0)

Asked: Could you kindly confirm the outcome this assay logged for NC(=O)c1ccccc1[N+](=O)[O-] ?
Given back: false (0)

Asked: # outcome recorded in this test, key = CC(=O)C(=O)CC(C)C
Given back: false (0)

* * *

assay-info: Caspase-3/7 induction in CHO-K1 cells by small molecules, qHTS cell viability counter screen (AID 1346979); further: nearly all actives have a fitted effect of over 35% in size; further: potency means the concentration at half of the fitted maximal effect
measurement-conditions: CellTiter-Fluor fluorescence, 17 h; series mostly up to 92.4 µM
Description: National Center for Advancing Translational Sciences [NCATS] NIH Chemical Genomics Center [NCGC] U.S. Environmental Protection Agency [EPA] National Institutes of Environmental Health Sciences [NIEHS] National Toxicology Program [NTP] U.S. Food and Drug Administration [FDA] Apoptosis is a process of programmed cell death and plays a central role in the development of multicellular organisms. […]
Results filed as inconclusive are left out. Active and inactive are the calls of the source. Calls follow the shape of the dose curve; as a rule, active = well fitted cell-killing curve with a large enough effect in the repeat runs; inconclusive = weak or mixed curves, or effect the other way; inactive = no such curve, though single readings can be large or run the other way.
reported-property: Potency

Study these solved cases before continuing.
CCN(CC)C(=O)/C(C#N)=C/c1cc(O)c(O)c([N+](=O)[O-])c1: 26.6 µM (active)
COC(=O)CC(C(C)=O)C(=O)OC (stereo unspecified): inactive
Nc1c(Cl)cc(Cl)cc1[N+](=O)[O-]: inactive
COc1cc(NC(C)CCCN)c2ncccc2c1 (stereo unspecified): inactive
CC(C)c1ccc(C(=O)N=C(N)N)cc1S(C)(=O)=O: inactive

Asked: State, in one line, measured Potency of O=C(O)CCC(=O)OC[C@@H](NC(=O)C(Cl)Cl)[C@H](O)c1ccc([N+](=O)[O-])cc1
Given back: inactive

* * *

assay-info: qHTS RealTime-Glo MT Cell Viability Assay in HEK293 cells - 16 hour (AID 1224872); further: nearly all actives have a fitted effect of over 50% in size
measurement-conditions: RealTime-Glo luminescence; series mostly up to 76.8 µM
Text: National Center for Advancing Translational Sciences [NCATS] NIH Chemical Genomics Center [NCGC] U.S. Environmental Protection Agency [EPA] National Institutes of Environmental Health Sciences [NIEHS] National Toxicology Program [NTP] U.S. Food and Drug Administration [FDA] Measure of cell viability is critical in the cell-base assay. Analysis of cell viability is necessary for the characterization of cell responses to cytotoxic drugs and environmental stress. […]
Results filed as inconclusive are left out. Active and inactive are the calls of the source. Calls follow the shape of the dose curve; as a rule, active = well fitted cell-killing curve with a large enough effect in the repeat runs; inconclusive = weak or mixed curves, or effect the other way; inactive = flat fitted curve, though single readings scatter.
The reply should be one of these categories: active, inactive

Asked: What did this assay record as the result for COc1ccc(-n2nc(C(F)F)cc2-c2ccc(S(C)=O)cc2)cc1 (stereo not drawn) ?
Given back: inactive

Asked: What call does the record list for CC(=O)OCCC(C)CC(C)(C)C (stereo not drawn) ?
Given back: inactive

Asked: How did this test come out for C/C(C=O)=C\c1ccccc1 ?
Given back: inactive

Asked: Write down the call the test reported for this molecule. Item: CCCCCCCC/C=C/C(=O)O
Given back: inactive

Asked: Tell me the recorded outcome of this test for CCCCCCCC(=O)Oc1c(Br)cc(C#N)cc1Br .
Given back: active

Asked: Answer briefly: the call reported for Cc1cn([C@H]2C[C@H](F)[C@@H](CO)O2)c(=O)[nH]c1=O in this assay.
Given back: inactive

Asked: Hi, sorry to bother you, what did the test record for CCN(CC)CC(=O)Nc1c(C)cccc1C(=O)OC ?
Given back: inactive

Asked: Please share the test call associated with CCCCC(CC)COS(=O)(=O)O (stereo not drawn) .
Given back: inactive

Asked: Please state the recorded outcome for this molecule: O=C(O)CN1C(=O)c2cccc3cccc(c23)C1=O
Given back: inactive

Asked: Please state the recorded outcome for this molecule: CC(C)OC(=O)c1ccccc1C(=O)OC(C)C
Given back: inactive

* * *

system-name: Voltage-gated inwardly rectifying potassium channel KCNH2 (Homo sapiens) (UniProt Q12809)
Sequence (Q12809 whole entry, looked up): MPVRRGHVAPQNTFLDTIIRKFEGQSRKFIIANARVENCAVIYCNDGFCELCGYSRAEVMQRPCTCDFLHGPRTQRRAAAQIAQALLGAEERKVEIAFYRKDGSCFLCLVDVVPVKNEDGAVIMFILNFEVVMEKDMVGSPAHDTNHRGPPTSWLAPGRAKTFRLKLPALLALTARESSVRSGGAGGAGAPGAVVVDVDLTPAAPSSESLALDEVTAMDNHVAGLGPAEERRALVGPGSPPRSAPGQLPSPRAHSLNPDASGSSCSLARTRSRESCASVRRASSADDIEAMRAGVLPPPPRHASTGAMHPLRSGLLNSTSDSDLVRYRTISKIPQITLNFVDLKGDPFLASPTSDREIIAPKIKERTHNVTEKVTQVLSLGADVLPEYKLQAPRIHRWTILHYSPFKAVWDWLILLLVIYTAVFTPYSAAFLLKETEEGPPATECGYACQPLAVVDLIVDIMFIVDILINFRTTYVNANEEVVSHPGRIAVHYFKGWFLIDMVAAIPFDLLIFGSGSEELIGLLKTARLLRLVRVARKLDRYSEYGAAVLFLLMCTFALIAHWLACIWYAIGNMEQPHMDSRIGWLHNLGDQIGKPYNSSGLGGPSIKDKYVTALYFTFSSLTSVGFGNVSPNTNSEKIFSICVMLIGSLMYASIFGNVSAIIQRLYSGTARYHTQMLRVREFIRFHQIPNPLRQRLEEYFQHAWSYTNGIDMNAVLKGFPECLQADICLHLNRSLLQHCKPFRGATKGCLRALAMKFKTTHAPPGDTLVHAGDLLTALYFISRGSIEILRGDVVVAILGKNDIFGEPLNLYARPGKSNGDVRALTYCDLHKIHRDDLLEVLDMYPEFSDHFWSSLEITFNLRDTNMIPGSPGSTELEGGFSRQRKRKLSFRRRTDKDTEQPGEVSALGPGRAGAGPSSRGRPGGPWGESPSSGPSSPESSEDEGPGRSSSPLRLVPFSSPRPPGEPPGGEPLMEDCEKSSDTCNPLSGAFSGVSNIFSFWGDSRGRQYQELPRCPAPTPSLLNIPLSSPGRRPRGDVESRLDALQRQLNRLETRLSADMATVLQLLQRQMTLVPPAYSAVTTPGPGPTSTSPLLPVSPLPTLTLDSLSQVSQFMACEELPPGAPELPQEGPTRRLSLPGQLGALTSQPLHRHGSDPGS
assay-info: Human Ether-a-go-go-Related Gene (hERG) channel small molecule antagonists: fluorescence cell-based qHTS assay (AID 1671200); further: nearly all actives have a fitted effect of over 50% in size
measurement-conditions: hERG-U2OS cells, FluxOR thallium flux fluorescence; series mostly up to 76.8 µM
Results filed as inconclusive are left out. Activity calls are given as the source filed them. Calls come from the whole dose curve; as a rule, active = well fitted inhibition curve with a large enough effect in the repeat runs; inconclusive = weak or mixed curves; inactive = flat fitted curve, though single readings scatter.
Allowed answers: active, inactive

Check out these entries, answers already filled in.
CCN(CC)CCOC(=O)C(c1ccccc1)c1ccccc1: active
CC(=O)OCC1=C(C(=O)O)N2C(=O)[C@@H](NC(=O)CSc3ccncc3)[C@H]2SC1: inactive
COc1ccc2nc(S(=O)Cc3ncc(C)c(OC)c3C)[nH]c2c1 (stereo unspecified): inactive
Cc1oc(=O)oc1COC(=O)[C@@H]1N2C(=O)[C@@H](NC(=O)[C@H](N)c3ccccc3)[C@H]2SC1(C)C: inactive
CC(C)OC(=O)c1ccccc1C(=O)OC(C)C: inactive
Cc1ccc2nc(N)[nH]c(=O)c2c1Sc1ccncc1: inactive
CC(=O)C(=O)CC(C)C: inactive
COc1ccc(C)cc1: inactive
O=CNNC=O: inactive
CSCC[C@H](NC(=O)[C@H](Cc1c[nH]c2ccccc12)NC(=O)CCNC(=O)OC(C)(C)C)C(=O)N[C@@H](CC(=O)O)C(=O)N[C@@H](Cc1ccccc1)C(N)=O: inactive

Asked: How did this test come out for BrC(Br)C(Br)Br ?
Given back: inactive

Asked: // outcome(item) with item = Cc1cc(CCC(=O)OCCOCCOCCOC(=O)CCc2cc(C)c(O)c(C(C)(C)C)c2)cc(C(C)(C)C)c1O
Given back: inactive

Asked: Hey, what did the test say about Nc1ccc(F)cc1 ?
Given back: inactive

Asked: Each molecule tested received a call. Report the one for O=c1[nH][nH]c(=O)c2cc([N+](=O)[O-])ccc12 .
Given back: inactive

Asked: Field: outcome | Entry: C1CCCCC1
Given back: inactive

* * *

assay-info: A CellTox Green Cytotoxicity Assay to monitor cytotoxicity in HepG2 cells - 16 hour (AID 1224876); further: nearly all actives have a fitted effect of over 45% in size
measurement-conditions: CellTox Green fluorescence; series mostly up to 76.8 µM
Text: National Center for Advancing Translational Sciences [NCATS] NIH Chemical Genomics Center [NCGC] U.S. Environmental Protection Agency [EPA] National Institutes of Environmental Health Sciences [NIEHS] National Toxicology Program [NTP] Cell-based models are critical for drug discovery. […] Viable cells produce no appreciable increases in fluorescence. Therefore, the fluorescence signal produced by the binding interaction with dead cell DNA is proportional to cytotoxicity. […]
Inconclusive results are not listed. Active and inactive are the calls of the source. Calls come from the whole dose curve; as a rule, active = well fitted activation curve with a large enough effect in the repeat runs; inconclusive = weak or mixed curves; inactive = flat fitted curve, though single readings scatter.
Answer with one of the outcomes YES (active), NO (inactive)

Asked: Hi, do you know how O=C(C(=O)c1ccco1)c1ccco1 came out in this test?
Given back: NO

Asked: // outcome(item) with item = CC(C)(C(=O)c1cccnc1)c1cccnc1
Given back: NO

* * *

assay-info: qHTS RealTime-Glo MT Cell Viability Assay in HepG2 cells - 0 hour (AID 1224889); further: nearly all actives have a fitted effect of over 50% in size
measurement-conditions: RealTime-Glo luminescence; series mostly up to 76.8 µM
Results filed as inconclusive are left out. The source made the active and inactive calls. Calls follow the shape of the dose curve; as a rule, active = well fitted cell-killing curve with a large enough effect in the repeat runs; inconclusive = weak or mixed curves, or effect the other way; inactive = flat fitted curve, though single readings scatter.
reported-property: activity change, negative = cytotoxicity

Cc1ccccc1S(N)(=O)=O: inactive
c1ccc(CCCc2ccncc2)cc1: inactive
Cc1ccc2c(c1[N+](=O)[O-])C(=O)c1ccccc1C2=O: inactive
CCNc1nc(N)nc(Cl)n1: inactive
CC12CC3CC(C)(C1)CC(N)(C3)C2: inactive
Cc1c[nH]c2ccccc12: inactive

Attention now turns to another entry.
Asked: Quick one: give measured activity change, negative = cytotoxicity for CC(C(=O)O)c1ccc(C(=O)c2cccs2)cc1 (configuration not stated)
Given back: inactive

The measured values listed here are drawn from PubChem BioAssay (Tox21).
